# measuredTarget: hTLR7 (human Toll-like receptor 7) (Homo sapiens, UniProt Q9NYK1)
# Sequence (Q9NYK1 27-1049): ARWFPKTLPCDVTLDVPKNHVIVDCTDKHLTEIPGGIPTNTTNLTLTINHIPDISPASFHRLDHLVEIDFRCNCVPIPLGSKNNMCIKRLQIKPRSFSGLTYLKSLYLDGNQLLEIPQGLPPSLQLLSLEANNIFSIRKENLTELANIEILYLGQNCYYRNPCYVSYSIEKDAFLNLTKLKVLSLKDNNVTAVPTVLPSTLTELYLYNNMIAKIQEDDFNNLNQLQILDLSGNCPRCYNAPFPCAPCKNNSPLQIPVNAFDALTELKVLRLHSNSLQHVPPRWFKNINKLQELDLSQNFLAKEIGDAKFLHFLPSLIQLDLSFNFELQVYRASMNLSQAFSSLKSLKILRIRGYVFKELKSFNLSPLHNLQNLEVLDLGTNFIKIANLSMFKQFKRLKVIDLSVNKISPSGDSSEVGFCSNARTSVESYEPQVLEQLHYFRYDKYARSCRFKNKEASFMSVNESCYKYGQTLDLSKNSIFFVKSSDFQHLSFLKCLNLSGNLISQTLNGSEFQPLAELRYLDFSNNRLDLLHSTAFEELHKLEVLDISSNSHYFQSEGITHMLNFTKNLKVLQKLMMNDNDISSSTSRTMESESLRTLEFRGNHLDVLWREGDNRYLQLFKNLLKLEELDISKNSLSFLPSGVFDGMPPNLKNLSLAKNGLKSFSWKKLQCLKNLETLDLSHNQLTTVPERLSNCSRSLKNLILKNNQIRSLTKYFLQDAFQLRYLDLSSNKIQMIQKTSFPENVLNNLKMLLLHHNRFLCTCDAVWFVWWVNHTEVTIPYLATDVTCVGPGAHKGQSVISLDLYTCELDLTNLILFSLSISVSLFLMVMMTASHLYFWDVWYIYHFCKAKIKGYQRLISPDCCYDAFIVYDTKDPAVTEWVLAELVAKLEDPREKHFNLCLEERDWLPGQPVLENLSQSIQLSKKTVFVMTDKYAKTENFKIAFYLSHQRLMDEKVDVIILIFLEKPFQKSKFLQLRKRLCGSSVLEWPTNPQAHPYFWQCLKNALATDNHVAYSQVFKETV
# protocolSummary: hTLR7 cell assay (HEK-Blue hTLR7 reporter cells)
# protocolConditions: 24 hours, OD 650 nm
Reported EC50 values follow for various compounds

compound: CCC[C@H](C)c1nc2c(N)nc3cc(Cc4ccc(CCN)cc4)ccc3c2n1CC(C)(C)O
EC50: > 10000 nM

compound: CCOCc1nc2c(N)nc3cc(Cc4ccc(F)c(CN)c4)ccc3c2n1CC(C)(C)O
EC50: < 1000 nM

compound: CC(C)(O)Cn1c(CC2CC2)nc2c(N)nc3cc(Cc4cccc(CN)c4)ccc3c21
EC50: < 1000 nM

compound: CCOCc1nc2c(N)nc3cc(Cc4ccccc4)ccc3c2n1CC(C)(C)N
EC50: > 10000 nM

compound: CCOCc1nc2c(N)nc3cc(Cc4cccc(CNC(=O)CN)c4)ccc3c2n1CC(C)(C)O
EC50: 1000 to 10000 nM

compound: CCCCc1nc2c(N)nc3cc(C(C)c4cccc(CN)c4)ccc3c2n1CC(C)(C)O (stereo not drawn)
EC50: < 1000 nM

compound: CCOCc1nc2c(N)nc3cc(Cc4ccc(C(=O)NCCN)cc4)ccc3c2n1CC(C)(C)O
EC50: > 10000 nM

compound: CCCC(C)c1nc2c(N)nc3cc(Cc4ccc(CCN)cc4)ccc3c2n1CC(C)(C)OC (stereo not drawn)
EC50: > 10000 nM

compound: CCOCc1nc2c(N)nc3cc(Cc4ccc(CN)cc4)ccc3c2n1CC(C)(C)O
EC50: > 10000 nM

compound: CCCCc1nc2c(N)nc3cc(Cc4cccc(C(=O)NCCN)c4)ccc3c2n1CC(C)(C)O
EC50: 1000 to 10000 nM

compound: CCCCc1nc2c(N)nc3cc(Cc4cc(CN)ccc4F)ccc3c2n1CC(C)(C)O
EC50: < 1000 nM

compound: CCCCc1nc2c(N)nc3cc(Cc4ccc(CN)s4)ccc3c2n1CC(C)(C)O
EC50: < 1000 nM

compound: CCCCc1nc2c(N)nc3cc(Cc4cccc(CNC)c4)ccc3c2n1CC(C)(C)O
EC50: < 1000 nM

compound: CCOCc1nc2c(N)nc3cc(Cc4ccc(CCCN)cc4)ccc3c2n1CC(C)(C)O
EC50: 1000 to 10000 nM

compound: CCOCc1nc2c(N)nc3cc(Cc4ccc(NC(=O)NCCN)cc4)ccc3c2n1CC(C)(C)O
EC50: > 10000 nM

compound: CCOCc1nc2c(N)nc3cc(Cc4ccc(CCN)cc4)ccc3c2n1CC(C)(C)OCCO
EC50: < 1000 nM

compound: CCCC(C)c1nc2c(N)nc3cc(Cc4ccccc4)ccc3c2n1CC(C)(C)OCCCN (stereo not drawn)
EC50: 1000 to 10000 nM

compound: CCCC(F)(F)c1nc2c(N)nc3cc(Cc4cccc(CN)c4)ccc3c2n1CC(C)(C)O
EC50: 1000 to 10000 nM

compound: CCCCc1nc2c(N)nc3cc(Cc4cccc(CNC(=O)CN)c4)ccc3c2n1CC(C)(C)O
EC50: 1000 to 10000 nM

compound: CC(C)(O)Cn1c(COC2CC2)nc2c(N)nc3cc(Cc4cccc(CN)c4)ccc3c21
EC50: < 1000 nM

compound: CCOCc1nc2c(N)nc3cc(Cc4cccc(C(=O)NCCN)c4)ccc3c2n1CC(C)(C)O
EC50: 1000 to 10000 nM

compound: CCCCc1nc2c(N)nc3cc(Cc4cccc(CN)c4)ccc3c2n1CC(C)(C)O
EC50: < 1000 nM

compound: CCOCc1nc2c(N)nc3cc(Cc4ccc(CCN)cc4)ccc3c2n1Cc1ccc(CO)cc1
EC50: 1000 to 10000 nM

compound: CCC[C@@H](C)c1nc2c(N)nc3cc(Cc4ccccc4)ccc3c2n1CC(C)(C)OCCN
EC50: 1000 to 10000 nM

compound: CC(C)(O)Cn1c(COCC(F)(F)F)nc2c(N)nc3cc(Cc4cccc(CN)c4)ccc3c21
EC50: < 1000 nM

compound: CCOCc1nc2c(N)nc3cc(Cc4ccccc4)ccc3c2n1CC1CC(CN)C1 (stereo not drawn)
EC50: 1000 to 10000 nM

compound: CCCCc1nc2c(N)nc3cc(Cc4cccc(NC(=O)CN)c4)ccc3c2n1CC(C)(C)O
EC50: 1000 to 10000 nM

compound: CCCC(C)c1nc2c(N)nc3cc(Cc4cccc(CCCN)c4)ccc3c2n1CC(C)(C)O (stereo not drawn)
EC50: 1000 to 10000 nM

compound: CCOCc1nc2c(N)nc3cc(Cc4ccc(CC(N)=O)cc4)ccc3c2n1CC(C)(C)OCCN
EC50: 1000 to 10000 nM

compound: CCCCc1nc2c(N)nc3cc(Cc4cccc(CCCN)c4)ccc3c2n1CC(C)(C)O
EC50: < 1000 nM

compound: CCOCc1nc2c(N)nc3cc(Cc4ccccc4)ccc3c2n1CCC(O)C(F)(F)F (stereo not drawn)
EC50: > 10000 nM

compound: CCOCc1nc2c(N)nc3cc(Cc4ccccc4)ccc3c2n1Cc1ccc(CN)cc1
EC50: < 1000 nM

compound: CCOCc1nc2c(N)nc3cc(Cc4ccc(CC(N)=O)cc4)ccc3c2n1CCNS(C)(=O)=O
EC50: 1000 to 10000 nM

----------
# measuredTarget: hTLR8 (human Toll-like receptor 8) (Homo sapiens)
# Sequence (Q9NR97 27-1041): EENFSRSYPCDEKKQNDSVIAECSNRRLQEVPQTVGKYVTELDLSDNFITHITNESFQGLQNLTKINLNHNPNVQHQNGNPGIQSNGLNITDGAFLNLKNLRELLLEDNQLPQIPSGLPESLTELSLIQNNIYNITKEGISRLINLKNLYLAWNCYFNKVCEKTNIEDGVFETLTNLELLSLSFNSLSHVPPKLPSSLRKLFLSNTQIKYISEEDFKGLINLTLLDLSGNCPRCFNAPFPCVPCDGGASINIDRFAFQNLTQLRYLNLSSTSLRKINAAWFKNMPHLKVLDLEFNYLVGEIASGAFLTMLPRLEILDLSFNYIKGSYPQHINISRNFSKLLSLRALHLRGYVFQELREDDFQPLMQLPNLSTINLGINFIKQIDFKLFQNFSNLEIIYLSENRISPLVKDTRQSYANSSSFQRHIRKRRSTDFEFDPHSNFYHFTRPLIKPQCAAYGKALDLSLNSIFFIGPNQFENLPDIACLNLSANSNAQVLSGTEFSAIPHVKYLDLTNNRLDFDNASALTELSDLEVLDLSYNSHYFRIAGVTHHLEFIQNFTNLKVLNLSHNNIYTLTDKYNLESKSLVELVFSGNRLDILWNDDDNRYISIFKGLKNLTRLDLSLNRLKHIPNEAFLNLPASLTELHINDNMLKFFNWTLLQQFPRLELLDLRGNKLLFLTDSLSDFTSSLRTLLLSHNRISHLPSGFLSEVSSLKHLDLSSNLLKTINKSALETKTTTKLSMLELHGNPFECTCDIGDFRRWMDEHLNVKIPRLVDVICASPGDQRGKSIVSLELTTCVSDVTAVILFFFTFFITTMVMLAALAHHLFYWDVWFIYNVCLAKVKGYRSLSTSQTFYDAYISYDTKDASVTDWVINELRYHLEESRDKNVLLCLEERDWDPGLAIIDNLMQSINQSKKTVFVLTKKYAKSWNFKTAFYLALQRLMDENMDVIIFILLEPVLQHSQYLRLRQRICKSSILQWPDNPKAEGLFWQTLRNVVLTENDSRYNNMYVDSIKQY
# protocolSummary: hTLR8 cell assay (HEK-Blue hTLR8 reporter cells)
# protocolConditions: 24 hours, OD 650 nm
assayEndpoint: EC50

molecule: CCCC(C)c1nc2c(N)nc3cc(Cc4ccccc4)ccc3c2n1CC(C)(C)OCCCN (stereo not drawn)
assayEndpoint: EC50
recordedMeasurement: < 5 µM
--
molecule: CCOCc1nc2c(N)nc3cc(Cc4ccc(CC(N)=O)cc4)ccc3c2n1CC(C)(C)OCCN
assayEndpoint: EC50
recordedMeasurement: > 20 µM
--
molecule: CCCCc1nc2c(N)nc3cc(Cc4cccc(NC(=O)CN)c4)ccc3c2n1CC(C)(C)O
assayEndpoint: EC50
recordedMeasurement: < 5 µM
--
molecule: CCOCc1nc2c(N)nc3cc(Cc4ccc(NC(=O)NCCN)cc4)ccc3c2n1CC(C)(C)O
assayEndpoint: EC50
recordedMeasurement: 5 to 20 µM
--
molecule: CCOCc1nc2c(N)nc3cc(Cc4cccc(CN)c4)ccc3c2n1CC(C)(C)O
assayEndpoint: EC50
recordedMeasurement: < 5 µM
--
molecule: CCOCc1nc2c(N)nc3cc(Cc4ccc(CCN5CCCC5)cc4)ccc3c2n1CC(C)(C)OCCN
assayEndpoint: EC50
recordedMeasurement: > 20 µM
--
molecule: CCOCc1nc2c(N)nc3cc(Cc4ccc5c(c4)CCNC5)ccc3c2n1CC(C)(C)O
assayEndpoint: EC50
recordedMeasurement: < 5 µM
--
molecule: CCCC(C)c1nc2c(N)nc3cc(Cc4ccc(CCCN)cc4)ccc3c2n1CC(C)(C)O (stereo not drawn)
assayEndpoint: EC50
recordedMeasurement: < 5 µM
--
molecule: CCOCc1nc2c(N)nc3cc(Cc4ccc(CCN)cc4)ccc3c2n1CC(C)(C)O
assayEndpoint: EC50
recordedMeasurement: 5 to 20 µM
--
molecule: CCCCc1nc2c(N)nc3cc(Cc4ccc5c(c4)CC(N)CC5)ccc3c2n1CC(C)(C)O (stereo not drawn)
assayEndpoint: EC50
recordedMeasurement: < 5 µM
--
molecule: CCOCc1nc2c(N)nc3cc(Cc4ccccc4)ccc3c2n1Cc1ccc(CN)cc1
assayEndpoint: EC50
recordedMeasurement: 5 to 20 µM
--
molecule: CCOCc1nc2c(N)nc3cc(Cc4ccc(CC(N)=O)cc4)ccc3c2n1CCNS(C)(=O)=O
assayEndpoint: EC50
recordedMeasurement: > 20 µM
--
molecule: CCOCc1nc2c(N)nc3cc(Cc4ccccc4)ccc3c2n1CC1CC(CN)C1 (stereo not drawn)
assayEndpoint: EC50
recordedMeasurement: > 20 µM
--
molecule: CCOCc1nc2c(N)nc3cc(Cc4ccccc4)ccc3c2n1CC(C)(C)OCCN
assayEndpoint: EC50
recordedMeasurement: < 5 µM
--
molecule: CCCCc1nc2c(N)nc3cc(Cc4ccc(CCN)cc4)ccc3c2n1CC(C)(C)O
assayEndpoint: EC50
recordedMeasurement: < 5 µM
--
molecule: CCOCc1nc2c(N)nc3cc(Cc4ccccc4)ccc3c2n1CC(C)(C)N
assayEndpoint: EC50
recordedMeasurement: > 20 µM
--
molecule: CCOCc1nc2c(N)nc3cc(Cc4ccc(CCN)cc4)ccc3c2n1Cc1ccc(CO)cc1
assayEndpoint: EC50
recordedMeasurement: > 20 µM
--
molecule: CC(C)(O)Cn1c(COC2CC2)nc2c(N)nc3cc(Cc4cccc(CN)c4)ccc3c21
assayEndpoint: EC50
recordedMeasurement: < 5 µM
--
molecule: CCOCc1nc2c(N)nc3cc(Cc4ccc(CCN)cc4)ccc3c2n1CC(C)(C)OCCO
assayEndpoint: EC50
recordedMeasurement: > 20 µM
--
molecule: CC(C)(O)Cn1c(CC2CC2)nc2c(N)nc3cc(Cc4cccc(CN)c4)ccc3c21
assayEndpoint: EC50
recordedMeasurement: < 5 µM
--
molecule: CCOCc1nc2c(N)nc3cc(Cc4ccccc4)ccc3c2n1CC(C)(C)NCCN
assayEndpoint: EC50
recordedMeasurement: > 20 µM
